molecular target: human RXFP4 (Homo sapiens, UniProt Q8TDU9); construct: expressed in transfected cells; host or cells: HEK293T; test: Receptor activation assay, CRE-controlled NanoLuc reporter; type: cell-based; conditions: HEK293T cells cotransfected with human RXFP4 and CRE-controlled NanoLuc reporter; 1.0 μM forskolin; 37 °C, 4 h; mean ± SE, n = 3; SEM
Sequence (Q8TDU9 whole entry): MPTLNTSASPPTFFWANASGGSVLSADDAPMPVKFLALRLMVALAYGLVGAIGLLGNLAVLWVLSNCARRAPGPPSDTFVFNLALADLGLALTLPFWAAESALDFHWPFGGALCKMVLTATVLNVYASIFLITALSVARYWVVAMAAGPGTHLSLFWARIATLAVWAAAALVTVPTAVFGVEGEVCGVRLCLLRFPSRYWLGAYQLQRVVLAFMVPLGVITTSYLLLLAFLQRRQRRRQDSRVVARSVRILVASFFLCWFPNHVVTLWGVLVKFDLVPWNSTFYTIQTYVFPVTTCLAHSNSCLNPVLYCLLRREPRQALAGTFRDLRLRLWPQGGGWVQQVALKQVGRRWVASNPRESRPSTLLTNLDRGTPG
No end group written: not given here.
ATTRIBUTE_MEASURED: pEC50 RXFP4
The reply should be a number, written without any unit.

Example entries and their recorded answers appear below.
SUBSTANCE	REPORTED_RESULT
[L(B9)R,Y(B17)F]INSL5: recombinant mature two-chain INSL5 mutant (Insulin-like peptide INSL5 B … KESVRLCGREYIRTVIFICASSRW; Insulin-like peptide INSL5 A … QDLQTLCCTDGCSMTDLSALC; ends and bridges not checked; cysteine pairing not given here; UniProt Q9Y5Q6 23-46; Q9Y5Q6 115-135, looked up, variant L9R Y17F)	9.20
[F(B20)Y,G(B23)A,G(B24)S]R3/I5: recombinant mature two-chain R3/I5 mutant (chain 1 RAAPYGVRLCGREFIRAVIYTCASSRW; chain 2 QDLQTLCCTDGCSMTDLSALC; disulfide (positions not given here); not fully specified; also: A-chain N-terminal pyroglutamate likely)	9.02

# input Requested read-out: pEC50 RXFP4. Entry: [T(B14)A]INSL5: recombinant mature two-chain INSL5 mutant (Insulin-like peptide INSL5 B … KESVRLCGLEYIRAVIYICASSRW; Insulin-like peptide INSL5 A … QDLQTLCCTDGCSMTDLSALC; ends and bridges not checked; cysteine pairing not given here; UniProt Q9Y5Q6 23-46; Q9Y5Q6 115-135, looked up, variant T14A)
# output 9.05
